Origin of measurements: PubChem BioAssay AID588675

target: Mas-related G-protein coupled receptor member X1 (Homo sapiens) (UniProt Q96LB2); assay: positive allosteric modulators of MrgX1, primary screen, HEK293 cells, Fluo-4 calcium flux (AID 588675); conditions: MrgX1-HEK293, Fluo-4 calcium flux, FDSS, at 10 µM; hits give high values;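 also: compound read alongside a low EC10 to EC30 dose of BAM8-22 agonist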;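 as to B-score: peak minus trough fluorescence over baseline measured at the second addition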
Sequence (Q96LB2 whole entry, looked up): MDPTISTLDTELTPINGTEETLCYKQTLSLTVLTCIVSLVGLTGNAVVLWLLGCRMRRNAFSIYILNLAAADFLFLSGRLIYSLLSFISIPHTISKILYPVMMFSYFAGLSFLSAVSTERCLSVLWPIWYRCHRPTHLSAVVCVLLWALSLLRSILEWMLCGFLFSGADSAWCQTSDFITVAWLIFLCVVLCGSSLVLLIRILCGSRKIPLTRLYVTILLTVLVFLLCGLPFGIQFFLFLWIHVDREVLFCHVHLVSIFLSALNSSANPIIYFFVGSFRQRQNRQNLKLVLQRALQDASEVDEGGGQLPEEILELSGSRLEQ
Among all 310,000 compounds or so, about 1,900 (0.61%) were called active. The sample as a whole holds a higher share of actives than the screen did.
Observable: B-score

Recorded results for 6 compounds are shown here.
CCOc1ccc(C2=CC(c3ccccc3)n3ncnc3N2)cc1 (stereo not given) : 7.44 (active)
CC(NC(=O)c1ccc(N2CCNCC2)c([N+](=O)[O-])c1)C12CC3CC(CC(C3)C1)C2 (stereo not given) : 6.65 (active)
Cc1nonc1C1CCCN1Cc1nc(-c2ccc(F)cc2F)oc1C (stereo not given) : 7.14 (active)
COc1ccc(C2=CC(c3cccc(OC)c3)n3nnnc3N2)cc1 (stereo not given) : inactive
CCc1cc2c(=O)c(-c3nc4ccccc4n3C)c(CCCC(=O)O)oc2cc1OC(=O)C(C)(C)C : inactive
Cc1ccc(CNS(=O)(=O)c2ccc3c(c2)N(C)CCO3)cc1 : inactive

Query: Given the entry Cc1ccc(C2=N/C(=C\c3ccc(OS(=O)(=O)c4ccc(C)cc4)cc3)C(=O)O2)cc1 , report its measured B-score.
Response: inactive

Query: What measured B-score goes with Cc1c(Cl)cccc1NC(=S)N(Cc1ccccc1)Cc1cccnc1 ?
Response: inactive

Query: Which value of B-score has been reported for CN1CC(c2ccccc2)C2(COc3ccccc3C2=O)C12C(=O)Nc1ccccc12 (stereo not given) in the records?
Response: inactive

Query: Please give the measured B-score for this compound: Brc1ccc(C2=CC(c3ccco3)n3ncnc3N2)cc1 (stereo not given)
Response: inactive

Query: # query: B-score of entry S=c1nc(C23CC4CC(CC(C4)C2)C3)nc2sccn12
Response: inactive

Query: Item under review: CCn1cc(C(=O)NCC(=O)NC(C)(C)CO)c(=O)c2cc3c(cc21)OCO3 . Reported B-score?
Response: inactive

Query: # query: B-score of entry O=C(Oc1ccc(F)cc1)N1CCOCC1
Response: inactive

Query: // lookup B-score for COc1ccccc1CCNS(=O)(=O)c1cn(C)nc1C
Response: inactive

Query: Param item = CCOC(=O)C1=C(C)N=C2c3ccccc3C(=O)C2C1c1ccc(Br)cc1 (stereo not given) ; retrieve measured B-score.
Response: inactive

Query: I have this compound here, O=C(COC(=O)c1ccc(NS(=O)(=O)c2cccs2)cc1O)Nc1ccc(F)cc1 , and I need its recorded B-score.
Response: 9.09 (active)

Query: Tell me the measured B-score of COc1ccc(F)c(-c2nc(CN3CCC(c4ccccc4)CC3)c(C)o2)c1 , please.
Response: inactive

Query: Look up B-score: Cc1ccc2c(C)c(C(=O)N(C)Cc3ccncn3)oc2c1C
Response: inactive

Query: Endpoint output: B-score of O=C1c2ccccc2C(=O)C1c1ccccc1F . Value?
Response: inactive

Query: Which B-score is listed for CCC1=NN2C(=N)/C(=C/c3cc(C)n(-c4ccccc4)c3C)C(=O)N=C2S1 ?
Response: inactive

Query: Any idea what B-score was measured for Brc1ccccc1C1Nc2cccc3cccc(c23)N1 ?
Response: 11.9 (active)

Query: Return reported B-score; argument: CCC(C)NC(=O)c1ccc(N2CCC3(CC2)OCCO3)c([N+](=O)[O-])c1 (stereo not given)
Response: inactive

Query: Name the reported B-score value associated with the compound O=C1c2ccccc2C2=Nc3ccccc3SC(c3ccccc3F)C12 (stereo not given)
Response: 13.4 (active)

Query: Requested read-out: B-score. Entry: CCc1ccc(NC(=O)COC(=O)c2cccs2)cc1
Response: inactive

Query: Quick one: B-score of O=C(Oc1ccc(C(=S)N2CCOCC2)cc1)c1ccc(F)cc1 ?
Response: 12.3 (active)
